Quick record of IC50 values for LSD-1 enzyme (Homo sapiens (Human)).

Observe how each entry below is paired with its result.
Molecule	Assayed System	Value Type	Observed Value
COCC1(CN[C@@H]2C[C@H]2c2ccccc2)CCN(C(=O)N2CCC[C@H](O)C2)CC1	LSD-1 enzyme (Homo sapiens (Human))	IC50	< 0.1 µM
N#Cc1ccc(C(=O)N2CC(CN[C@@H]3C[C@H]3c3ccccc3)C2)cc1 (relative stereo)	LSD-1 enzyme (Homo sapiens (Human))	IC50	< 0.1 µM
COCC1(CN[C@@H]2C[C@H]2c2ccccc2)CCN(C(=O)c2ccn(C)n2)CC1	LSD-1 enzyme (Homo sapiens (Human))	IC50	< 0.1 µM
Fc1ccc(CN2CC(CN[C@@H]3C[C@H]3c3ccccc3)C2)cc1 (relative stereo)	LSD-1 enzyme (Homo sapiens (Human))	IC50	< 0.1 µM
O=C(O)C1(CN2CCC(CN[C@@H]3C[C@H]3c3ccccc3)(COc3ccccc3F)CC2)CC1	LSD-1 enzyme (Homo sapiens (Human))	IC50	< 0.1 µM
O=C(N1CC(CNC2CC2c2ccccc2)C1)N1CCC[C@]2(CCN(C3CCC(O)CC3)C2=O)C1 (stereo partly shown)	LSD-1 enzyme (Homo sapiens (Human))	IC50	< 0.1 µM
COCC1(CNC2CC2c2ccc(OC)cc2)CCN(CC2(C(=O)O)CCC2)CC1 (stereo not shown)	LSD-1 enzyme (Homo sapiens (Human))	IC50	< 0.1 µM
COc1ccc(CC2(CN[C@@H]3C[C@H]3c3ccccc3)CCN(CC3(C(=O)O)CC3)CC2)cn1	LSD-1 enzyme (Homo sapiens (Human))	IC50	< 0.1 µM

Look at each molecule and report its IC50.
1. COCCn1cc(C(=O)N2CCC(CN[C@@H]3C[C@H]3c3ccccc3)(COC)CC2)cn1
2. COCC1(CN[C@@H]2C[C@H]2c2ccccc2)CCN(C(=O)N2CCC(OC)CC2)CC1
3. CNC(=O)c1cccc(OCC2(CN[C@@H]3C[C@H]3c3ccccc3)CCN(CC3(C(=O)O)CC3)CC2)n1
4. N#Cc1ccccc1OCC1(CN[C@@H]2C[C@H]2c2ccccc2)CCN(CC2(C(=O)O)CC2)CC1
5. COCC1(CN[C@@H]2C[C@H]2c2ccccc2)CCN(C(=O)[C@@H]2CCCN2C)CC1
6. COCC1(CN[C@@H]2C[C@H]2c2ccccc2)CCN(C(=O)C2CCN(C)CC2)CC1
7. COc1ccc(CC2(CN[C@@H]3C[C@H]3c3ccccc3)CCN(CC3(C(=O)O)CC3)CC2)cc1
8. COCC1(CN[C@@H]2C[C@H]2c2ccccc2)CCN(C(=O)N2CC[C@H](O)C2)CC1

1: < 0.1 µM; 2: < 0.1 µM; 3: < 0.1 µM; 4: < 0.1 µM; 5: < 0.1 µM; 6: < 0.1 µM; 7: < 0.1 µM; 8: < 0.1 µM
